experimentalDetails: yeast aging ROS inhibitors as calorie-restriction mimetics – HTS, primary screen (AID 2690);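 also: yeast aged for seven days with compound at 30 °C before DHE staining; 100% = average MFI of all compound-treated wells on the plate with controls excluded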
conditionsUsed: S. cerevisiae aged cells, superoxide DHE fluorescence; at 10 µM; hits give low values
The campaign covered roughly 330,000 compounds. About 590 (0.18%) were called active. Shown is part of a subset that was picked to be rich in actives.
quantity: superoxide response (% of plate mean) (%)

compound="O=C(NCc1ccc(F)cc1)C1CCC(CNc2c(N3CCOCC3)c(=O)c2=O)CC1 (centres undefined)" unit=% number=96.9
compound=C[n+]1cc(-c2ccccc2)oc1-c1ccccc1 unit=% number=96.2
compound=Cc1csc2ncc(C(=O)N(Cc3ccccc3)c3ccccn3)c(=O)n12 unit=% number=92.8
compound=CC(=O)c1ccc(N2CCN(C(=O)c3ccc4nc[nH]c4c3)CC2)cc1 unit=% number=112
compound=O=C(COc1ccc([N+](=O)[O-])cc1Cl)Nc1ccc2[nH]c(=O)[nH]c2c1 unit=% number=111
compound=CC(=O)C[C@@H](O)CC(=O)[C@H]1OC(=O)CCCCCCc2ccccc21 unit=% number=62.5
compound=Cc1ccc(NC(=O)Cn2nc(C)c3ccccc3c2=O)c(C)c1 unit=% number=54.4
compound=Cc1ccccc1NC(=O)NCC1CCN(Cc2cccc(Cl)c2)CC1 unit=% number=36.3
compound=O=C(NCC1CCN(Cc2ccccc2Cl)CC1)Nc1cccc(Cl)c1 unit=% number=103
compound="O=C(NC1CCC(O)CC1)c1ccc(S(=O)(=O)NCc2ccco2)cc1 (centres undefined)" unit=% number=102
compound="CCOC(=O)C1=CN(Cc2ccc(Br)cc2)S(=O)(=O)N(C)C1C (centres undefined)" unit=% number=105
compound=COc1ccc(-n2nnnc2-c2nc3ccccc3s2)cc1 unit=% number=88.6
compound=COc1cccc(N(Cc2nnc3n2CCCCC3)C(=O)Nc2ccccc2F)c1 unit=% number=107
compound=O=C(CCS(=O)(=O)c1ccc2c(c1)NC(=O)CS2)NCc1ccccc1Cl unit=% number=110

----------
experimentalDetails: yeast aging ROS inhibitors as calorie-restriction mimetics – HTS, primary screen (AID 2690);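 also: yeast aged for seven days with compound at 30 °C before DHE staining; 100% = average MFI of all compound-treated wells on the plate with controls excluded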
conditionsUsed: S. cerevisiae aged cells, superoxide DHE fluorescence; at 10 µM
In all, about 330,000 compounds went through this assay and about 590 (0.18%) were called active.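 How the source made its calls: active means superoxide response under a set limit, about three screen SD below normal (cut at about 65% in these data); inactive means the rest.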 This excerpt belongs to a sample that is enriched for actives.
Possible outcomes: active, inactive

smilesrepresentation=O=[N+]([O-])c1ccc2nc(-c3ccccn3)[nH]c2c1 group=inactive
smilesrepresentation=O=[N+]([O-])c1ccc2c(c1)Nc1nc3ccccc3nc1N2 group=active
smilesrepresentation=COc1ccc([N+](=O)[O-])cc1-c1nc2ccccc2nc1-c1ccccc1 group=inactive

----------
experimentalDetails: yeast aging ROS inhibitors as calorie-restriction mimetics – HTS, primary screen (AID 2690);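 also: yeast aged for seven days with compound at 30 °C before DHE staining; 100% = average MFI of all compound-treated wells on the plate with controls excluded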
conditionsUsed: S. cerevisiae aged cells, superoxide DHE fluorescence; at 10 µM; hits give low values
About 590 (0.18%) of roughly 330,000 compounds were called active. Only a selection was taken, and actives are over-represented in it overall.
quantity: superoxide response (% of plate mean) (%)

smilesrepresentation=COc1ccc(/C(C)=N/Nc2cc(C(F)(F)F)ccc2Cl)c(OC)c1 quantity="superoxide response (% of plate mean)" number=87.7
smilesrepresentation=CC(C)(C)NC(=O)c1cccc(NC(=O)Cc2ccc(Br)cc2)c1 quantity="superoxide response (% of plate mean)" number=91.5
smilesrepresentation=CCc1cc(-c2n[nH]c(=S)n2CC(C)C)cs1 quantity="superoxide response (% of plate mean)" number=87.8
